# collection of Ki values tested on Indoleamine 2,3-dioxygenase 1 (Homo sapiens, UniProt P14902)
# Sequence (P14902 whole entry): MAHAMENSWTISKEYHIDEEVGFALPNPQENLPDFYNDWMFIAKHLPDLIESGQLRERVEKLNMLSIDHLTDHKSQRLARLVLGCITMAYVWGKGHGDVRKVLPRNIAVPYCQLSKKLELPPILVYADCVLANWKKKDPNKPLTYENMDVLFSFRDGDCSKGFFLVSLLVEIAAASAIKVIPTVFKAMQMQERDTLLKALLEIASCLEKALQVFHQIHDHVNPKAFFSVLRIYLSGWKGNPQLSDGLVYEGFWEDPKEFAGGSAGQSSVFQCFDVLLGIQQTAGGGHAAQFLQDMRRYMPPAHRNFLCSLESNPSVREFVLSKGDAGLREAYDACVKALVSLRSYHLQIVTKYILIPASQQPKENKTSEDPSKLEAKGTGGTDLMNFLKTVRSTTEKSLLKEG
State the answer as a number, implicitly in nM.

Request: Request the reported Ki associated with CC12CCCc3coc(c31)C(=O)c1cc3c(cc12)C(=O)C1C(NCCS1(=O)=O)C3=O (configuration not stated)
Result: 25

Request: Please give the measured Ki for this compound: CCc1cc2c(cc1C)C(=O)C1=C(C2=O)C(OC)(C(=O)OC)OC1(C)C (configuration not stated)
Result: 140

---

Measured pIC50 by item
assaySystem: Indoleamine 2,3-dioxygenase 1 (Homo sapiens)
experiment: Inhibition of IDO1 (unknown origin)
Note on pIC50: it is the negative log10 of concentration, concentration in mol/L.

Examples with their reported pIC50 follow.
{"columns": ["molecule", "observedProperty", "measValue"],
 "data": [
  ["COC(=O)[C@H]1CCCN1C[C@@H](O)c1c(OC)cc2c(c1O)C(=O)c1cc(O)c(C)cc1C2=O", "pIC50", 6.30],
  ["CS[C@@]1(C)C(=O)N2[C@H]3N(c4ccc5oc6cc(=O)c(N)c(C(=O)O)c-6nc5c4C(=O)O)c4ccccc4[C@@]3(c3c[nH]c4ccccc34)[C@H](O)[C@]2(SC)C(=O)N1C", "pIC50", 5.70],
  ["Brc1cc(Nc2ccc3nonc3c2)c2cn[nH]c2c1", "pIC50", 4.13]
]}

Request: Requested read-out: pIC50. Entry: `COC1=CC(=O)c2c(O)c3c(c4c2[C@]12CC(=O)C[C@H]2[C@@]1(C[C@H](O)[C@H](O)CO1)O4)C[C@](C)(O)[C@H](O)C3`
Result: 4.49

Request: Reported pIC50 for CNC(=O)[C@H]1[C@@H](OC)C2(O)c3ccccc3NC(=O)[C@@]2(C(=O)N[C@@H](CCC(=O)OC)C(=O)C=C(C)C)N1C (stereo not given in full) : what is it?
Result: 5.00

Request: What value of measured pIC50 is listed for `COC1=C(OC)C(=O)C(Nc2ccccc2)=CC1=O` ?
Result: 6.22

Request: Using the record for `COC1=C(OC)C(=O)C(Nc2cccc(NC(=O)Nc3ccccc3)c2)=C(C)C1=O` , report its pIC50.
Result: 6.40

Request: Which value of pIC50 has been reported for `COC1=C(OC)C(=O)C(Nc2ccc(Cl)cc2)=CC1=O` in the records?
Result: 6.57

Request: Look up pIC50 for this molecule: `COc1c(C(C)=O)c(C)cc2cc3c(c(O)c12)C(=O)C(C)(C)C(=O)C3(C)C`
Result: 5.93

Request: Could you share which pIC50 value was measured for C=C1CC[C@@H]2[C@](C)(CO)[C@H](O)CC[C@@]2(C)[C@@H]1C/C=C1/C(=O)OC[C@H]1O [ANDROGRAPHOLIDE] ?
Result: 3.80

Request: Fill in the blank: the reported pIC50 of `COC1=C(OC)C(=O)C(Nc2ccccc2)=C(C)C1=O` is ____.
Result: 6.15

Request: Bench note: what pIC50 did `COC1=C(OC)C(=O)C(CCC(C)C)=C(C)C1=O` show?
Result: 5.55

Request: Need pIC50, item `CCc1c(OC)cc2c(c1O)C(=O)C[C@@H](OC)[C@@H]2O`
Result: 5.20
